Target: Toll-like receptor 8 (Homo sapiens)
Sequence (Q9NR97 whole entry): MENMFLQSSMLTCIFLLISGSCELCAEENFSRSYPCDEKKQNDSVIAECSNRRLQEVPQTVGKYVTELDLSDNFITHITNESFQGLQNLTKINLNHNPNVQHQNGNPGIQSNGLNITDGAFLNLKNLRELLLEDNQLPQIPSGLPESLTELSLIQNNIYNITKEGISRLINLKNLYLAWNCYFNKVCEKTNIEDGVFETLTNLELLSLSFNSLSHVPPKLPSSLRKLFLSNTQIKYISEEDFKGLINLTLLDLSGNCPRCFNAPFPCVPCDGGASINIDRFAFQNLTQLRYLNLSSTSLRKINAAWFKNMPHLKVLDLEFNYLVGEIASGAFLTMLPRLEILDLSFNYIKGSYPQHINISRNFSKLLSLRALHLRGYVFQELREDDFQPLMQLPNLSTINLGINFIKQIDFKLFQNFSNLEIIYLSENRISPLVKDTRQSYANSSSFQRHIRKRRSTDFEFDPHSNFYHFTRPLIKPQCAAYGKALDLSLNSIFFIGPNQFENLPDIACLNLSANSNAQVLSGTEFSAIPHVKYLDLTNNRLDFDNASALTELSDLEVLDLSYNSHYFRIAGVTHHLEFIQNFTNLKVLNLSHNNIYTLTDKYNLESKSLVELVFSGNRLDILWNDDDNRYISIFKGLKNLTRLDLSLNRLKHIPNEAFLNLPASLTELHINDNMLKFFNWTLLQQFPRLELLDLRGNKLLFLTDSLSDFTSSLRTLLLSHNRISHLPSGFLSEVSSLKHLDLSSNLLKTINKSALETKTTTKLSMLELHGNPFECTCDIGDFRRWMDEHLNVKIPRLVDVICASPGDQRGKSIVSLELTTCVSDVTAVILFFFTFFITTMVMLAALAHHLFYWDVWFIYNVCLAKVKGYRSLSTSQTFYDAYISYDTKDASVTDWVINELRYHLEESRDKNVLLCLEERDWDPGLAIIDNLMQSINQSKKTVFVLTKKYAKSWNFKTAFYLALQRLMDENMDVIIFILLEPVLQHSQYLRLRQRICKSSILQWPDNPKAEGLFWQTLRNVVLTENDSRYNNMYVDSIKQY
Test: Antagonist activity at TLR8 in human PBMC assessed as inhibition of CL075-induced IL-8 release after 12 hrs by bead array assay
Format: functional
Endpoint: IC50 (nM)
Field format: number, assumed nM, no unit text.

Q: I'm curious: which IC50 was measured for "Nc1nc2ccccc2c2c1nc(CCCc1nc3c(N)nc4ccccc4c3n1Cc1ccccc1)n2Cc1ccccc1" tested on Toll-like receptor 8 (Homo sapiens)?
Ans: 50
